Assay: soluble fraction after stress (log2 fold change); higher = more stays soluble; pooled small domains, quantitative proteomics
Conditions: stress: pH 4
Task for the reader: assign each of the following sequences its reported soluble fraction (log2).

Below, 7 sequences whose answers are already recorded.
[[record]]
inputsequence = "HMLKHEEIQEYIKEQINSGTWKPKAKLPSLRDMSELFSTSIGTVLTAYSALEKKHIIYSIPRSGYYVLG"
result = -0.334

[[record]]
inputsequence = "HMPEFKDMLKFFRMREHLSQSELAEKLGISASTVSMYEVGRRQPDFETEEKIADFFNTDLNTLRG"
result = -0.169

[[record]]
inputsequence = "HMRKSNADALDGKTGIVKEEIKTGGYGYVGIDGDMWRSISESGEAIPAGTKVVVISHESIILTVKPA"
result = "≥ 0.43"

[[record]]
inputsequence = "HMDLGEQIIEKLRAAGGFLAITDKSPAEEIYELFATSKKNYKKAVGGLYKKGLLVIEDDGIRLTPAGR"
result = "≥ 0.43"

[[record]]
inputsequence = "HMAMTQNVDLAGRIVFNEKKEEVFNFGKHKGRSVAEVFEKEPSYYDWMLKGDFPAETKQVLTALRLRGLS"
result = -0.64

[[record]]
inputsequence = "HMTSLAGIERFLASGAIAGVGEAMAHRLVQKFGKETLEIIEKKPSRLTEVAGVGKKTAAKIHASYMEK"
result = 0.0893

[[record]]
inputsequence = "HMRLSAADLQSYLKGMDYPASRQDLIAHARGHNAPEEAVATLEQFSDRTYRSAADVSVEFGRE"
result = 0.309


With those in mind, consider the next sequence.
[Q] If you can, please state the reported soluble fraction (log2) value of HMEELIIQEELANKRLDIAISLLFPELTRAHAQKLIKEGSVLVDGKPRKASYPLTAGKRLSVTLPEPE .
[A] -0.0497
